- System: RARg homodimer (NR concentration 270 nM)
- assay text: PBM binding z-score (relative to random genomic background probes); higher = stronger binding; sequences stand for … in GC…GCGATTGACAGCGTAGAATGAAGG
result type: PBM binding z-score

>>> quantitative_readout("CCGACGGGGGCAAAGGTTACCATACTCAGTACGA")
4.09
>>> quantitative_readout("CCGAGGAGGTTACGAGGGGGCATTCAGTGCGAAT")
3.17
>>> quantitative_readout("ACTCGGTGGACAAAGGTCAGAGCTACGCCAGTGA")
4.49
>>> quantitative_readout("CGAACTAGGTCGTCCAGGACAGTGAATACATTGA")
1.08
>>> quantitative_readout("TCTAGTGGGTCAAAGGTCACACACTCGAAATGCG")
7.49
>>> quantitative_readout("ATCGAAAGGTCCAAGGTGAGTATACCCACCCGAA")
1.08

----------
- Tested on: THRa homodimer (NR concentration 90 nM)
- assay text: PBM binding z-score (relative to random genomic background probes); higher = stronger binding; sequences stand for … in GC…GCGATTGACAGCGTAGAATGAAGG
Decision: PBM binding z-score compared against 2; not below it gives TRUE, below it gives FALSE.

>>> group("CGAACTAGGTCATTGACAGGACAATGAATAGTAA")
"FALSE"
>>> group("TGTCAAAGTTCAAAGGTCACGTAAGTATCCACAC")
"FALSE"
>>> group("TATACAGGGTCAAAGGTCAGAGTACGAATGTCGA")
"FALSE"
>>> group("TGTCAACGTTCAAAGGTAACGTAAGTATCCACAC")
"FALSE"
>>> group("ATCGAAAGGTCTAAGGTGAGTATACCCACCCGAA")
"FALSE"
>>> group("CAAACGAGGTCACCGGAAGGTCAAAGTCCGCATG")
"TRUE"
>>> group("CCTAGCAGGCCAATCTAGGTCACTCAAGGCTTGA")
"FALSE"
>>> group("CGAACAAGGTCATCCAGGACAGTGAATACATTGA")
"TRUE"
>>> group("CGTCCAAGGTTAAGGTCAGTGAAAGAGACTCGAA")
"TRUE"
>>> group("TATAAAGGGTCAAAGGCCAGAGTACGAATGTCGA")
"FALSE"
>>> group("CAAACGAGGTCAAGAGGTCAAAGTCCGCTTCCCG")
"TRUE"
>>> group("CGTCAAAGGTCAAGGTCAGTGAAAGAGACTCGAA")
"TRUE"
>>> group("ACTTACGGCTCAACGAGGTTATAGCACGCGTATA")
"FALSE"
>>> group("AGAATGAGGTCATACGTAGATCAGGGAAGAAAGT")
"TRUE"
>>> group("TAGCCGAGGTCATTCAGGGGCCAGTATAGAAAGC")
"TRUE"
>>> group("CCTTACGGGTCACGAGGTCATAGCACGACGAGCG")
"TRUE"
>>> group("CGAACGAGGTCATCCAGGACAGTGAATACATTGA")
"TRUE"
>>> group("CAAACCAGGTCACAGAGGTCAAAGTCCGTGCGTA")
"TRUE"
>>> group("ACTCGGAGGTCAAAGGTCAGAGCTACGCCAGTGA")
"FALSE"
>>> group("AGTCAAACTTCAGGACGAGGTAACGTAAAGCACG")
"FALSE"
>>> group("CGAACAAGGTCATTGACAGGACAGTGAATAGTAA")
"TRUE"
>>> group("CCTACTGGGCCTAAGGTCATTGATTCCAATGCTC")
"TRUE"
>>> group("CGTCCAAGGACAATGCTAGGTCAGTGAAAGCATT")
"FALSE"
>>> group("CGTCAAAGTCCAAGGTAACGTAACAGAAAGCAGC")
"FALSE"
>>> group("CAAACGAGGTCACAGAGGTCAAAGTCCGTGCGTA")
"TRUE"
>>> group("AATACAGGGTCATCGTACGCCAGAGTACGCACAG")
"FALSE"

----------
- Test system: VDR:RXRa (NR concentration 270 nM, RXRa partner concentration 90 nM)
- assay text: PBM binding z-score (relative to random genomic background probes); higher = stronger binding; sequences stand for … in GC…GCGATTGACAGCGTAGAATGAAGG
Decision: PBM binding z-score compared against 5; not below it gives t, below it gives f.

>>> group("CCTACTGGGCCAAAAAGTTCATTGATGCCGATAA")
"f"
>>> group("CCTTACGGGTCACGAGGTTGTAGCACGACGAGCG")
"t"
>>> group("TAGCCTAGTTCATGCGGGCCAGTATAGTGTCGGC")
"f"
>>> group("TAGCCTAGGTCATTCAGGGGCCAGCATAGAAAGC")
"f"
>>> group("TCGAGTAGGTCACGGGGGCATTCAGGGATGAAGA")
"t"
>>> group("CGTCAAAGGTCAACTAAGGTAACGTAAAGCACGC")
"t"

----------
- Tested on: PPARg:RXRa 30nM:10nM, anti-RXR (NR concentration 30 nM, RXRa partner concentration 10 nM)
- assay text: PBM binding z-score (relative to random genomic background probes); higher = stronger binding; sequences stand for … in GC…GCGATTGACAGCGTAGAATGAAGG
PBM binding z-score for assorted sequences
result type: PBM binding z-score

>>> quantitative_readout("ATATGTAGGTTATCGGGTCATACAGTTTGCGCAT")
4.38
>>> quantitative_readout("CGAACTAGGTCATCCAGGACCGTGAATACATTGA")
3.53
>>> quantitative_readout("TCGCCTAGGTCATGGGCCAGTATACCACGCGAAC")
1.9
>>> quantitative_readout("CCGAATAGGTTACGAGGGGGCATTCAGTGCGAAT")
2
>>> quantitative_readout("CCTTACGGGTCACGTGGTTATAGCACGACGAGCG")
2.2
>>> quantitative_readout("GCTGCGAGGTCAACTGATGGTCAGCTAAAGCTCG")
2.91
>>> quantitative_readout("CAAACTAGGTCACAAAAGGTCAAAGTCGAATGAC")
6.97
>>> quantitative_readout("CCAACTGGGCCAAAAAGGTCATTGATGCCGATAA")
1.65
>>> quantitative_readout("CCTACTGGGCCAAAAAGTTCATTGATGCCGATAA")
0.0164
>>> quantitative_readout("ATCGAAAGGTCGACGCGGTGAGTATACACCGTTT")
0.887
>>> quantitative_readout("CAAACAAGGTCACGAAAGGTCAAAGTCGAATGAC")
5.8
>>> quantitative_readout("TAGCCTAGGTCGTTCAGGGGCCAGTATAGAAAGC")
-0.575

----------
- Test system: VDR:RXRa (NR concentration 270 nM, RXRa partner concentration 90 nM)
- assay text: PBM binding z-score (relative to random genomic background probes); higher = stronger binding; sequences stand for … in GC…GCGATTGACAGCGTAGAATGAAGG
PBM binding z-score for assorted sequences
result type: PBM binding z-score

>>> result("ATCGAAAGGTCAAGGTGAGTATAGAGAAAGGGAA")
5.32
>>> result("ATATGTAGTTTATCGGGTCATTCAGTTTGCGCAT")
5.19
>>> result("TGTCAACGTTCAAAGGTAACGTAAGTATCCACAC")
0.617
>>> result("ACTAGTTGGTCAGCTGAGGTCACACCCAATTCGG")
4.19
>>> result("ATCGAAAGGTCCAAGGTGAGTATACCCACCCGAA")
0.423
>>> result("GATACGGGGTCAAGGCCAGAGTACGCGTATTGAT")
6.27
>>> result("CTATGTAGGTTAGGGGGGTCATTCAGTTTGAAAG")
7.68
>>> result("TTACCAAGGTGAAAGGTCGTTGCTGCACGCCTTG")
3.19
>>> result("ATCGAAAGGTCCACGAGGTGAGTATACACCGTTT")
1.22
>>> result("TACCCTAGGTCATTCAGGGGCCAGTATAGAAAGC")
3.44
>>> result("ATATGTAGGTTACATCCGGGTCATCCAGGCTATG")
4.14
>>> result("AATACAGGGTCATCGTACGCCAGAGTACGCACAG")
5.2

----------
- Test system: PPARg:RXRa 90nM:30nM, anti-RXR (NR concentration 90 nM, RXRa partner concentration 30 nM)
- assay text: PBM binding z-score (relative to random genomic background probes); higher = stronger binding; sequences stand for … in GC…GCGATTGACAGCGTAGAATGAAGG
Decision: PBM binding z-score compared against 2; not below it gives Met, below it gives Not met.

>>> group("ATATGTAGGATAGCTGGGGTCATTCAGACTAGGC")
"Met"
>>> group("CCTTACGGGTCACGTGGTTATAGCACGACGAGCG")
"Met"
>>> group("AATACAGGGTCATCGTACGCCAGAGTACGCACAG")
"Met"
>>> group("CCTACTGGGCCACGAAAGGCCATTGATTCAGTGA")
"Not met"
>>> group("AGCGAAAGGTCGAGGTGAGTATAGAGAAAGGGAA")
"Met"
>>> group("CGTCAAAGGTCAAGGTAACGTAACAGAAAGCAGC")
"Met"
>>> group("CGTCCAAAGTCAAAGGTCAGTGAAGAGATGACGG")
"Met"
>>> group("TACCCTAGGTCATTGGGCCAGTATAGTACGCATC")
"Met"
>>> group("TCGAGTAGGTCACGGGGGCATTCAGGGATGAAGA")
"Met"
>>> group("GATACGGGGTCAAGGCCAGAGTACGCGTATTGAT")
"Met"
>>> group("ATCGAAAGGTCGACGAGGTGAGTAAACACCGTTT")
"Met"
>>> group("CGTCAAAGGTCAGCAGGTCAGTGAAAGCGACGTG")
"Met"
>>> group("CGAACTAGGTCGCCAGGACAGTGAAGAGGTTGGA")
"Not met"
>>> group("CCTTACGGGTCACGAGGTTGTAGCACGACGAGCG")
"Met"
>>> group("ATATGTAGGTTAAAGGTCATTCAGGTTGGTTCGC")
"Met"
>>> group("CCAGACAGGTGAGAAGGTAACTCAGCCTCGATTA")
"Not met"
>>> group("CCTACTGGGCCAAAGAGGTCATTGATGCCGATAA")
"Met"
>>> group("ATCGAAAGGTCAAAGGTGAGTATACCCACCCGAA")
"Met"
>>> group("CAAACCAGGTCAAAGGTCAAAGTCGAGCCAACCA")
"Met"
>>> group("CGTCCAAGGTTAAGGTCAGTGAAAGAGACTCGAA")
"Not met"
>>> group("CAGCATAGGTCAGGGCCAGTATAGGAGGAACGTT")
"Not met"
>>> group("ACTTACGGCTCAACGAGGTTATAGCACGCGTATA")
"Not met"
>>> group("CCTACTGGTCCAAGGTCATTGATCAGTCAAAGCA")
"Met"
>>> group("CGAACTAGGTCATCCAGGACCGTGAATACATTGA")
"Met"
>>> group("CAAACAAGGTCACCGGAAGGTCAAAGTCCGCATG")
"Met"
>>> group("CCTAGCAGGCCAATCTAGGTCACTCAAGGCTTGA")
"Not met"

The reported numbers originate from the supplement of paper PMC6555819.
